target: Induced myeloid leukemia cell differentiation protein Mcl-1 (Homo sapiens, UniProt Q07820); assay: Competitive binding affinity to Mcl-1 (unknown origin) preincubated for 30 mins followed by 5-FAM-Bid-BH3 peptide addition measured after 20 mins by fluorescence polarization assay
Sequence (Q07820 whole entry): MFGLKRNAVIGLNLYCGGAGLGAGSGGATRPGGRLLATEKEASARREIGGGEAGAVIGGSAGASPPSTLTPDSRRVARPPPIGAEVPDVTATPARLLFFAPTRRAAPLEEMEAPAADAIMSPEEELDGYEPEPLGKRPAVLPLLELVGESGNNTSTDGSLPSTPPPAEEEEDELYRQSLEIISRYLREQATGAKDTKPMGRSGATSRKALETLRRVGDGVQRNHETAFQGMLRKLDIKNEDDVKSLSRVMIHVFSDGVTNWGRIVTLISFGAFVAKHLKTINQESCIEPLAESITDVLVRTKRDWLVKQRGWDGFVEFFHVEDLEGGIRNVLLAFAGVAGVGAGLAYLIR
RECORDED METRIC: Ki (µM)

O=C(NS(=O)(=O)c1ccc(Cl)c([N+](=O)[O-])c1)[C@H](Cc1ccccc1)N1C(=O)N[C@@H](Cc2ccc(-c3ccc(Cl)cc3)cc2)C1=O :: 2.9

P: O=Cc1ccc(-c2ccc(C[C@@H]3NC(=O)N([C@@H](Cc4ccccc4)C(=O)NS(=O)(=O)c4ccc(Cl)c([N+](=O)[O-])c4)C3=O)cc2)cc1
Q: Cc1cccc(-c2ccc(C[C@@H]3NC(=O)N([C@@H](Cc4ccccc4)C(=O)NS(=O)(=O)c4ccc(Cl)c([N+](=O)[O-])c4)C3=O)cc2)c1
For P and Q , which recorded Ki is lower? Answer with the label corresponding to your selection.
Q
(Q: 2.3 µM, P: 9.3 µM)
